Entries annotated with measured T/C
Test system: Mus musculus
Assay: In vivo antitumor activity against murine sarcoma 180 cells at an optimal dose of 8 mg/kg.
Type: functional
API note: the answer field is a bare number with no unit suffix.

{"compound": "COCCOCC(=O)OCCOCCOCC(=O)O[C@@H]1/C=C(\\C)CC[C@]2(CC(=O)N[C@@H](C)c3nc(cs3)/C=C\\C=C\\C1=O)[S+]([O-])SC(=O)[C@]2(C)O (stereo not given in full)", "targetSystem": "Mus musculus", "T/C": 0.12}
{"compound": "C/C1=C\\[C@@H](OC(=O)CNC(=O)CNC(=O)OC(C)(C)C)C(=O)/C=C/C=C\\c2csc(n2)[C@H](C)NC(=O)C[C@@]2(CC1)[S+]([O-])SC(=O)[C@]2(C)O (stereo not given in full)", "targetSystem": "Mus musculus", "T/C": 0.22}
{"compound": "C/C1=C\\[C@@H](OC(=O)CNC(=O)CNC(=O)c2ccccc2)C(=O)/C=C/C=C\\c2csc(n2)[C@H](C)NC(=O)C[C@@]2(CC1)[S+]([O-])SC(=O)[C@]2(C)O (stereo not given in full)", "targetSystem": "Mus musculus", "T/C": 0.42}
{"compound": "C/C1=C\\[C@@H](OC(=O)CNC(=O)CNC(=O)OC(C)(C)C)C(=O)/C=C/C=C/c2csc(n2)[C@@H](C)N2C(=O)C[C@@]([C@@](C)(O)C(=O)SCc3oc(=O)oc3C)(CC1)[S+]2[O-] (stereo not given in full)", "targetSystem": "Mus musculus", "T/C": 0.39}
{"compound": "COCCOCCOCCOCCOCCOCC(=O)O[C@@H]1/C=C(\\C)CC[C@]2(CC(=O)N[C@@H](C)c3nc(cs3)/C=C\\C=C\\C1=O)[S+]([O-])SC(=O)[C@]2(C)O (stereo not given in full)", "targetSystem": "Mus musculus", "T/C": 0.3}

Query string: Requested read-out T/C, target or system Mus musculus, entry C/C1=C\[C@@H](OC(=O)CN(C)C(=O)OCc2ccccc2)C(=O)/C=C/C=C\c2csc(n2)[C@H](C)NC(=O)C[C@@]2(CC1)[S+]([O-])SC(=O)[C@]2(C)O (stereo not given in full)
Result string: 0.74

Query string: Requested read-out T/C, target or system Mus musculus, entry C/C1=C\[C@@H](OC(=O)COCCOCCOCCOCCO)C(=O)/C=C/C=C\c2csc(n2)[C@H](C)NC(=O)C[C@@]2(CC1)[S+]([O-])SC(=O)[C@]2(C)O (stereo not given in full)
Result string: 0.18

Query string: Requested read-out T/C, target or system Mus musculus, entry C/C1=C\[C@@H](OC(=O)CNC(=O)[C@H](NC(=O)OCc2ccccc2)C(C)C)C(=O)/C=C/C=C\c2csc(n2)[C@H](C)NC(=O)C[C@@]2(CC1)[S+]([O-])SC(=O)[C@]2(C)O (stereo not given in full)
Result string: 0.56

Query string: Requested read-out T/C, target or system Mus musculus, entry C/C1=C\[C@@H](OC(=O)CNC(=O)CCNC(=O)OCc2ccccc2)C(=O)/C=C/C=C\c2csc(n2)[C@H](C)NC(=O)C[C@@]2(CC1)[S+]([O-])SC(=O)[C@]2(C)O (stereo not given in full)
Result string: 0.55

Query string: Requested read-out T/C, target or system Mus musculus, entry C/C1=C\[C@@H](OC(=O)CNC(=O)CNC(=O)OCc2ccccc2)C(=O)/C=C/C=C\c2csc(n2)[C@H](C)NC(=O)C[C@@]2(CC1)[S+]([O-])SC(=O)[C@]2(C)O (stereo not given in full)
Result string: 0.3
